- System: Candida albicans
- protocol: Antibiofilm activity against mature biofilm of Candida albicans ATCC 10231 after 24 hrs by XTT reduction assay
- Format: functional
readout label: MBIC50

Incoming: What value of measured MBIC50 is listed for `O=C(/C=C/c1ccccc1)NCCc1c[nH]c2ccccc12` ?
Outgoing: >128 µg/mL

Incoming: Now the compound OC(Cn1cncn1)(Cn1cncn1)c1ccc(F)cc1F [FLUCONAZOLE]
Outgoing: >128 µg/mL

Incoming: Now try `O=C(/C=C/c1ccccc1)OC(Cn1cncn1)(Cn1cncn1)c1ccc(F)cc1F` .
Outgoing: >32 to 128 µg/mL

Incoming: Another compound to look at: `O=C(/C=C/c1ccccc1)OCc1ccc([N+](=O)[O-])o1`
Outgoing: 64 µg/mL

Incoming: Item: O=C(/C=C/c1ccccc1)OC(Cn1ccnc1)c1ccc(Cl)cc1Cl (configuration not stated)
Outgoing: 8 to 64 µg/mL

Incoming: One more compound: `O=C(/C=C/c1ccccc1)N1CCN(c2ncccc2[N+](=O)[O-])CC1`
Outgoing: >128 µg/mL

Incoming: Thanks! And `O=C(/C=C/c1ccccc1)N1CCN(c2ccc([N+](=O)[O-])cc2)CC1` ?
Outgoing: >32 to 128 µg/mL

Incoming: Can you check `Cc1ncc([N+](=O)[O-])n1CCOC(=O)/C=C/c1ccccc1` next?
Outgoing: >128 µg/mL

Incoming: And the next one, O=C(O)/C=C/c1ccccc1 [CINNAMIC ACID] ?
Outgoing: >128 µg/mL

Incoming: Same for `O=C(/C=C/c1ccccc1)NCCCn1ccnc1`
Outgoing: >128 µg/mL
